# target-or-system: Somatostatin receptor 3 (SSTR3) (human), P32745
# Sequence (P32745 whole entry): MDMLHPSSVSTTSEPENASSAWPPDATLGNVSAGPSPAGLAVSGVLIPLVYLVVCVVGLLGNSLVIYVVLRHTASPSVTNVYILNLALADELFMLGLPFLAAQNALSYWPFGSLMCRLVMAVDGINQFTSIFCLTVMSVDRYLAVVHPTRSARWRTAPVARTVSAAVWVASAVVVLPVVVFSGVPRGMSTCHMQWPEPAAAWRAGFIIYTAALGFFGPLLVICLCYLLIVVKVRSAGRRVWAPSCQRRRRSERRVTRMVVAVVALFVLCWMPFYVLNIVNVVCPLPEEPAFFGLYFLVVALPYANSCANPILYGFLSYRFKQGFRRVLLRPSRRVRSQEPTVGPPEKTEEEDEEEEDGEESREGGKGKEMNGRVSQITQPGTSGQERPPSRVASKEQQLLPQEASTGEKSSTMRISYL
# assay-procedure: competition with 125I-Tyr11 SST14
# condition-details: chains peptide; internal disulfide bond between the two cysteines (cyclic peptide)
Bridges are numbered along the chain shown (N, C = ends). Where no end group is shown, it is not given here.
assay-endpoint: pIC50
// pIC50 is dimensionless: -log10 of concentration (M)

Query (binder): PCKNFFWKTFSSCK (disulfide 2-13 (inferred)) [Cortistatin-14 (r,mCST-14), Q62949 99-112] ; field requested: pIC50
9.52

Sourced from paper PMC7994712
